Reported inhibition values are given for each entry in this list.
Assay: uracil-DNA glycosylase inhibition, oligo cleavage readout – biochemical, single concentration, fluorescence, FAM/TAMRA oligo, counter-screen for APOBEC3A inhibitor project, confirmation (AID 504714)
Conditions: UDG counterscreen, at 20 µM, active compounds read high
The whole screen tested about 1,000 compounds, of which fewer than 10 were called active. Only a sample is shown.
measurement.kind: inhibition (%)

> print(dat)
                                    compound  measurement.kind  unit.symbol  data.value
 1  COc1ccc(Br)cc1CN(C)C(=O)C1CC(=O)N(C2CCCC2)C1 (stereo not given)        inhibition            %        1.84
 2  C[N+](C)(CCCCCC[N+](C)(C)CCCN1C(=O)c2cccc3cccc(c23)C1=O)CCCN1C(=O)c2cccc3cccc(c23)C1=O        inhibition            %         1.2
 3                    COc1ccc(CNc2nnnn2C)cc1        inhibition            %       -2.73
 4  CCN1C(=NCC(C)C)N[C@@H](CCc2ccccc2)[C@H](C(=O)NCC(C)C)[C@H]1C        inhibition            %       -1.61
 5  COc1ccc(Cc2nnc(NC(=O)c3ccc(OC)cc3OC)s2)cc1        inhibition            %        2.26
 6          CC(C)c1ccc(/C=C2\NC(=O)NC2=O)cc1        inhibition            %       -1.04
 7  CCN(CC)CCCNC(=O)CCn1nc(-c2ccc(Cl)cc2)ccc1=O        inhibition            %       -0.02
 8  N#Cc1ccccc1CN1C(=O)S/C(=C/c2cccn2-c2cccc(C(=O)O)c2)C1=O        inhibition            %       -1.19
 9  CC(=O)Nc1ccc(Nc2cc(C)nc(Nc3ccc(NC(C)=O)cc3)n2)cc1        inhibition            %        4.81
10  CCCN1C2=C(C(=O)CCC2)C(c2ccc(O)c(Br)c2)C2=C1CCCC2=O        inhibition            %         0.9

###

Reported inhibition values are given for each entry in this list.
Test: uracil-DNA glycosylase inhibition, oligo cleavage readout – biochemical, single concentration, fluorescence, FAM/TAMRA oligo, counter-screen for APOBEC3A inhibitor project, confirmation (AID 504714)
Conditions: UDG counterscreen, at 20 µM, active compounds read high
Among all 1,000 compounds or so, fewer than 10 were called active. These entries were drawn from the full list.
measurement.kind: inhibition (%)

> print(dat)
                                    compound  measurement.kind  data.value
 1  C=CC1=C(C(=O)O)N2C(=O)[C@@H](NC(=O)/C(=N/OCC(=O)O)c3csc(N)n3)[C@H]2SC1        inhibition        -3.4
 2  CC(=O)Nc1ccc(NC(=O)C2CCCN(S(=O)(=O)c3ccc(Cl)cc3)C2)cc1 (configuration not stated)        inhibition        7.05
 3  NS(=O)(=O)c1cc(C(=O)OCC(=O)NNC(=O)c2ccccc2)ccc1Cl        inhibition        5.01
 4              C[N+]1(CCNC(=O)/C=N/O)CCCCC1        inhibition        2.37
 5  COC(=O)C1=C(C)N(Cc2ccccc2)C(=NCCCOC(C)C)N[C@H]1c1ccccc1        inhibition       -3.67
 6                   S=C(Nc1cccnc1)Nc1ccccn1        inhibition        -1.6
 7  CCn1c(SCC(=O)Nc2cccc(F)c2)nnc1-c1cc2cc(Br)ccc2o1        inhibition        6.96
 8  COc1ccc(CCNC(=O)COC(=O)/C=C/c2cccs2)cc1OC        inhibition        -1.3
 9      CC[n+]1cc(C)ccc1/C=C/c1ccc(N(C)C)cc1        inhibition       -2.09
10  CCCCNC(=O)CSc1nc2ccc(NC(=O)CSc3nnc(N)s3)cc2s1        inhibition       -1.96
11       CCCc1nc(-c2cc3cc(C)ccc3[nH]c2=O)no1        inhibition       -1.41
12             C[n+]1ccc(C(=O)NCc2ccccc2)cc1        inhibition       -2.62
13  CC(/C=C/c1ccccc1)=N\NC(=O)C1CC1(C)c1ccccc1 (configuration not stated)        inhibition        1.23
14              Cc1csc(SCC(=O)Nc2sccc2C#N)n1        inhibition       -2.94
15  CCN1C(=NCCc2cccnc2)N[C@@H](c2ccccc2)[C@H](C(=O)OC)[C@H]1C        inhibition       -0.96
16  COc1ccccc1CCNC(=O)C1CCN(C(=O)/C=C/c2ccccc2)CC1        inhibition           2
17            Cc1nnc(N/N=C/c2ccccn2)[nH]c1=O        inhibition        3.44
18  C[N+]1(CC(O)COc2ccccc2)CCN(C(=O)c2ccc([N+](=O)[O-])cc2)CC1 (configuration not stated)        inhibition       -0.77
19  COCCCn1c(Cc2csc(Nc3cccc(Cl)c3)n2)nnc1SCC(=O)OC1CCCCC1        inhibition        5.59
20  CC[n+]1c(C)n(-c2ccccc2)c2ccc(NC(C)=O)cc21        inhibition       -1.23
21  CCS(=O)(=O)c1ccc(-c2cccc(NC(=O)c3ccc(Br)o3)c2)nn1        inhibition       -1.58
22        CCOC(=O)c1ccc(NC(=O)CSc2ncccn2)cc1        inhibition        1.35

Where do these numbers come from? They come from PubChem BioAssay AID504714.
